Data credit: PubChem BioAssay

Assay: CellTiter-Glo luminescent readout of SW480 viability loss, NPC library primary (AID 1117343)
Conditions: CellTiter-Glo luminescence; at 20 µM (top of the series) unless noted
Calls of active or inactive are those of the source.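 The calls were made as follows: active = compounds that lower viability of the colon cancer cells in the luminescence readout, with no numeric limit stated; inactive = the rest.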
Outcomes you can answer with include only these: 1 for active, 0 for inactive

compound: CCN(CC)C(=O)Nc1ccc(OCC(O)CNC(C)(C)C)c(C(C)=O)c1 (stereo unspecified)
class assignment: 0

compound: CC(=O)c1ccc2c(c1)N(CCCN1CCC(CCO)CC1)c1ccccc1S2
class assignment: 1

compound: CC1(C)[C@@H]2CC[C@@]1(C)C(=O)C2
class assignment: 0

compound: CC(=O)Nc1ncc([N+](=O)[O-])s1
class assignment: 0

Prompt: Answer briefly: the call reported for "O=C(O)c1cc(N=Nc2ccc(O)c(C(=O)O)c2)ccc1O" in this assay.
Response: 0

Prompt: Answer briefly: the call reported for "CN1C[C@@H]2C[C@H]1CN2c1cc2c(cc1F)c(=O)c(C(=O)O)cn2C1CC1" in this assay.
Response: 0

Prompt: Answer briefly: the call reported for "Clc1ccc(Nc2nnc(Cc3ccncc3)c3ccccc23)cc1" in this assay.
Response: 1

Prompt: Answer briefly: the call reported for "CC(C)=CCC[C@@](C)(O)[C@H]1CC=C(C)CC1" in this assay.
Response: 0

Prompt: Answer briefly: the call reported for "C[C@]12CC[C@H]3[C@@H](CCC4=CC(=O)CC[C@@]43C)[C@@H]1CC[C@@H]2C(=O)CO" in this assay.
Response: 0

Prompt: Answer briefly: the call reported for "O=C(CCCl)NCCc1ccccc1" in this assay.
Response: 0

Prompt: Answer briefly: the call reported for "C=C1C[C@H]2[C@@H]3C=C(C)C4=CC(=O)CC[C@]4(C)[C@H]3CC[C@]2(C)[C@@]1(OC(C)=O)C(C)=O" in this assay.
Response: 1
